System: HCT-116 colon
method_summary: NCI-60 one-dose screen, 48 h
condition_details: 10 µM unless noted
The panel holds about 83,000 compounds, 20% with a hit somewhere; the sample as a whole holds those more often. The source made the active and inactive calls. Rule for the calls: active = growth percent below 10; inactive = the rest.
Labels: active, inactive

compound="CCCCCCCCCCCCC1CCC(=O)O1 (centres undefined)" assigned_category=inactive
compound=COc1cc2ccc(C(C)=O)cc2cc1OC assigned_category=inactive
compound=c1cc(C2CCCCC2)ccc1-c1cnc2nonc2n1 assigned_category=active
compound=O=C(CC(=O)C(F)(F)C(F)(F)C(F)(F)F)c1cc2ccccc2o1 assigned_category=inactive
compound="COc1ccc(C2=NNC(c3ccc(Oc4nc5c(c(=O)n(C)c(=O)n5C)n4C)c(OC)c3)C2)cc1 (centres undefined)" assigned_category=inactive
compound=Clc1nnc2c3ccccc3ccn12 assigned_category=inactive
compound=C=CC(=O)N1CN(C(=O)C=C)CN(C(=O)C=C)C1 assigned_category=inactive
compound=COc1ccc(CNc2c3ccccc3nc3ccccc23)cc1F assigned_category=inactive
compound=CCc1onc(-c2ccc(OC)cc2)c1-c1ccccc1OCCN(CC)CC assigned_category=inactive
